- STUDY SYSTEM: α-skeletal muscle actin filaments (rabbit) (rabbit, UniProt P68135 1-377)
QUANTITY KIND: pKd
API: returns pKd as number; meaning -log10 of concentration in mol/L.

For the binder VADLIKKFESISKEE (domain or fragment) [L45 (msfGFPΔC9-LifeactΔN2)] , what pKd is on record?
5.35

Look up pKd for this binder: MGVADLIKKFESI (domain or fragment) [L22 (LifeactΔC4-msfGFPΔN7)]
4.95

Would you kindly share the measured pKd for U20 (msfGFPΔC10-Utr28-222) (domain or fragment) EHNDVQKKTFTKWINARFSKSGKPPINDMFTDLKDGRKLLDLLEGLTGTSLPKERGSTRVHALNNVNRVLQVLHQNNVELVNIGGTDIVDGNHKLTLGLLWSIILHWQVKDVMKDVMSDLQQTNSEKILLSWVRQTTRPYSQVNVLNFTTSWTDGLAFNAVLHRHKPDLFSWDKVVKMSPIERLEHAFSKAQTYL ?
4.88
